The reported measurements were obtained from ChEMBL document CHEMBL4028809.

- target system: Carbonic anhydrase 9 (Homo sapiens)
- assay text: Inhibition of recombinant human carbonic anhydrase 9 using 4-nitrophenylacetate as substrate pretreated for 15 mins prior to test by spectrophotometric method
Could you please report measured IC50 for the items listed next?
A number alone suffices; assume nM.

Task item: // fetch Carbonic anhydrase 9 (Homo sapiens) IC50 for COc1ccc(/C=C/C(=O)N[C@@H]2[C@@H](O)[C@H](O)[C@@H](CO)O[C@H]2NC(=S)Nc2ccc(S(N)(=O)=O)cc2)cc1
Reply: 152

Task item: // fetch Carbonic anhydrase 9 (Homo sapiens) IC50 for COc1cccc(/C=C/C(=O)N[C@@H]2[C@@H](O)[C@H](O)[C@@H](CO)O[C@H]2NC(=S)Nc2ccc(S(N)(=O)=O)cc2)c1
Reply: 95

Task item: // fetch Carbonic anhydrase 9 (Homo sapiens) IC50 for N[C@@H]1[C@@H](O)[C@H](O)[C@@H](CO)O[C@H]1NC(=S)Nc1ccc(S(N)(=O)=O)cc1
Reply: 667

Task item: // fetch Carbonic anhydrase 9 (Homo sapiens) IC50 for COc1ccc(/C=C/C(=O)O)cc1
Reply: 850000

Task item: // fetch Carbonic anhydrase 9 (Homo sapiens) IC50 for COc1cccc(/C=C/C(=O)N[C@@H]2[C@@H](O)[C@H](O)[C@@H](CO)O[C@H]2NC(=S)Nc2ccc(S(N)(=O)=O)cc2)c1OC
Reply: 33

Task item: // fetch Carbonic anhydrase 9 (Homo sapiens) IC50 for COc1cc(OC)c(OC)cc1/C=C/C(=O)N[C@@H]1[C@@H](O)[C@H](O)[C@@H](CO)O[C@H]1NC(=S)Nc1ccc(S(N)(=O)=O)cc1
Reply: 37

Task item: // fetch Carbonic anhydrase 9 (Homo sapiens) IC50 for COc1ccc(/C=C/C(=O)N[C@H]2[C@H](OC)O[C@H](CO)[C@@H](O)[C@@H]2O)cc1
Reply: 20000

Task item: // fetch Carbonic anhydrase 9 (Homo sapiens) IC50 for COc1ccccc1/C=C/C(=O)N[C@@H]1[C@@H](O)[C@H](O)[C@@H](CO)O[C@H]1NC(=S)Nc1ccc(S(N)(=O)=O)cc1
Reply: 60

Task item: // fetch Carbonic anhydrase 9 (Homo sapiens) IC50 for COc1ccc(/C=C/C(=O)N[C@@H]2[C@@H](O)[C@H](O)[C@@H](CO)O[C@H]2NC(=S)Nc2ccc(S(N)(=O)=O)cc2)c(OC)c1
Reply: 7

Task item: // fetch Carbonic anhydrase 9 (Homo sapiens) IC50 for COc1cc(/C=C/C(=O)N[C@@H]2[C@@H](O)[C@H](O)[C@@H](CO)O[C@H]2NC(=S)Nc2ccc(S(N)(=O)=O)cc2)cc(OC)c1OC
Reply: 46

###

- target system: Carbonic anhydrase 2 (Homo sapiens, UniProt P00918)
- assay text: Inhibition of recombinant human carbonic anhydrase 2 using 4-nitrophenylacetate as substrate pretreated for 15 mins prior to test by spectrophotometric method
Could you please report measured IC50 for the items listed next?
A number alone suffices; assume µM.

Task item: Give the measured IC50 of COc1ccc(/C=C/C(=O)O)cc1 [4-METHOXYCINNAMIC ACID] .
Reply: 760

Task item: Give the measured IC50 of N[C@@H]1[C@@H](O)[C@H](O)[C@@H](CO)O[C@H]1NC(=S)Nc1ccc(S(N)(=O)=O)cc1 .
Reply: 0.203
